Experiment: Kinetic solubility of compound
Format: physicochemical
Conditions: read-out: Kinetic_solubility
measurementName: solubility kinetic (µM)

I = O=C1CCSC[C@@H](C(=O)Nc2cc(Cl)cc(Br)c2)N1
II = O=C(NC1CC(F)(F)C1)c1nsc2cc(Nc3n[nH]c4cccnc34)ccc12
Which of the two items, I and II , has the greater recorded solubility kinetic? Answer by stating the label of the chosen item. I
(I: 6.2 µM, II: 0.9 µM)

---

Target: Metabotropic glutamate receptor 4 (Rattus norvegicus)
Experiment: Positive allosteric modulation of rat mGlu4 receptor expressed in HEK293 cells co- expressing GIRK channel by thallium mobilization assay relative to control
Assay type: cell-based
Settings: filed as positive allosteric modulator
measurementName: %max (%)

O=C1CCSC[C@@H](C(=O)Nc2cc(F)cc(Br)c2)N1 = 101
O=C1CCSC[C@@H](C(=O)Nc2cc(Br)cc(Br)c2)N1 = 97
O=C1CCSC[C@H](C(=O)Nc2cc(Cl)cc(Br)c2)N1 = 98
